test system: Alpha 3 Adrenergic Receptors; assay: Rabbit Saphenous Vein: Alpha 3 Adrenergic Receptors; format: cell-based, albino rabbit; conditions: rabbit saphenous vein rings, 37° C., field stimulated; n = number of test runs
pEC50: −log10 of the molar value.
Reported metric: pEC50

>>> recorded_measurement("Brc1c(NC2=NCCN2)ccc2c1NCCN2 [Example 1]")
7.04
>>> recorded_measurement("CC1CNc2c(ccc(NC3=NCCN3)c2Br)N1 (racemic) [Example 2]")
6.24
